MBC: recorded values
# Test system: Streptococcus pyogenes
# assay info: Bactericidal activity against Streptococcus pyogenes 01-968 expressing inducible ermA incubated for 20 to 24 hrs followed by sub-culturing for 24 hrs in absence of compound
# Format: functional
measured property: MBC

smiles_notation=CC[C@H]1OC(=O)[C@@](C)(F)C(=O)[C@H](C)[C@@H](O[C@@H]2O[C@H](C)C[C@H](N(C)C)[C@H]2O)[C@](C)(OC)C[C@@H](C)/C(=N\OC/C=C/c2cncc(C(N)=O)c2)[C@H](C)[C@H]2OC(=O)O[C@@]21C target_under_test="Streptococcus pyogenes" experimental_result="> 0.5 µg/mL"
smiles_notation=CC[C@H]1OC(=O)[C@H](C)[C@H](OC(=O)c2ccccn2)[C@H](C)[C@@H](O[C@@H]2O[C@H](C)C[C@H](N(C)C)[C@H]2O)[C@](C)(OC)C[C@@H](C)/C(=N\OC)[C@H](C)[C@H]2OC(=O)O[C@@]21C target_under_test="Streptococcus pyogenes" experimental_result="> 64 µg/mL"
